# TEST_SYSTEM: Voltage-gated inwardly rectifying potassium channel KCNH2 (Homo sapiens, UniProt Q12809)
# Sequence (Q12809 whole entry): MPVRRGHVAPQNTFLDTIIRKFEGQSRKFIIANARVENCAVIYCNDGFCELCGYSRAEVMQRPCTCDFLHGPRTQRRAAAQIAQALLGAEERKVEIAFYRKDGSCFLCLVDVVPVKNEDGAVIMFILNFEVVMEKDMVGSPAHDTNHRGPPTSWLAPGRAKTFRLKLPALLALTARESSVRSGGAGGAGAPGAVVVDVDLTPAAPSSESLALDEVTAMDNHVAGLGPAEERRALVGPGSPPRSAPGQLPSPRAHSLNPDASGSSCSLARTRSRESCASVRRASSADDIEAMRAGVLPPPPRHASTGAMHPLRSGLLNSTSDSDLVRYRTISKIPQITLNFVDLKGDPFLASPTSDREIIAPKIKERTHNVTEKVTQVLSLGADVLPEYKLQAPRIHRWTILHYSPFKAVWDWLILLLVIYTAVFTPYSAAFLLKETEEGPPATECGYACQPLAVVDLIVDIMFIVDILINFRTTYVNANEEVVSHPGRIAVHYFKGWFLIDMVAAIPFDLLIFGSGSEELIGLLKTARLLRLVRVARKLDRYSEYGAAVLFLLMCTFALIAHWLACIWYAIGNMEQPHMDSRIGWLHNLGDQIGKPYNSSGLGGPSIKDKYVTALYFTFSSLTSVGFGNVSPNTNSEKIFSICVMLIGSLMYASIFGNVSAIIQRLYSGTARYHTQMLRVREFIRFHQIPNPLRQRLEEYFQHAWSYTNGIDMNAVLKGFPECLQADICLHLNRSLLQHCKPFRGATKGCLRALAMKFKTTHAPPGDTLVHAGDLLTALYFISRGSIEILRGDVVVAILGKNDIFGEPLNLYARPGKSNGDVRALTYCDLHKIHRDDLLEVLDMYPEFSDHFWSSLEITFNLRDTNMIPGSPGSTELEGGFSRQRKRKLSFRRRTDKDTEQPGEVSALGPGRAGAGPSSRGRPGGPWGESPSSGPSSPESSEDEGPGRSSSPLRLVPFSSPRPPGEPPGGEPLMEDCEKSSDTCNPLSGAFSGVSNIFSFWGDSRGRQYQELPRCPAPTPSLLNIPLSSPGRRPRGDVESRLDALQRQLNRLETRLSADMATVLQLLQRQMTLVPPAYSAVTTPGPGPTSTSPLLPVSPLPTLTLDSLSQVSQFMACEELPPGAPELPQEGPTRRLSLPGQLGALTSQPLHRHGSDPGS
QUANTITY_MEASURED: pIC50
Schema: pIC50 number; meaning minus log10 of the concentration expressed in molar units.

Exercise: Enter reported pIC50 observed with Voltage-gated inwardly rectifying potassium channel KCNH2 (Homo sapiens, UniProt Q12809) for COC(=O)c1ccc2c(c1)NC(=O)/C2=C(\Nc1ccc(N(C)C(=O)CN2CCN(C)CC2)cc1)c1ccccc1 [NINTEDANIB]
Key: 5.59

---

# METHOD_NOTES: Clearance in rat at 1 mg/kg, iv
# Type: ADME, organism-based
# EXPERIMENTAL_SETUP: in vivo
QUANTITY_MEASURED: clearance (mL/min/kg)
Report the figure in mL/min/kg without appending any unit label.

Exercise: Need clearance, item O=c1nc(OC[C@@H]2COCCO2)cc2n1CCc1cc(C#CC3CC3)ccc1-2 [GLPG-1205]
Key: 15

---

# TEST_SYSTEM: Platelet-derived growth factor receptor beta (Homo sapiens, UniProt P09619)
# Sequence (P09619 whole entry, the tested form may be a part): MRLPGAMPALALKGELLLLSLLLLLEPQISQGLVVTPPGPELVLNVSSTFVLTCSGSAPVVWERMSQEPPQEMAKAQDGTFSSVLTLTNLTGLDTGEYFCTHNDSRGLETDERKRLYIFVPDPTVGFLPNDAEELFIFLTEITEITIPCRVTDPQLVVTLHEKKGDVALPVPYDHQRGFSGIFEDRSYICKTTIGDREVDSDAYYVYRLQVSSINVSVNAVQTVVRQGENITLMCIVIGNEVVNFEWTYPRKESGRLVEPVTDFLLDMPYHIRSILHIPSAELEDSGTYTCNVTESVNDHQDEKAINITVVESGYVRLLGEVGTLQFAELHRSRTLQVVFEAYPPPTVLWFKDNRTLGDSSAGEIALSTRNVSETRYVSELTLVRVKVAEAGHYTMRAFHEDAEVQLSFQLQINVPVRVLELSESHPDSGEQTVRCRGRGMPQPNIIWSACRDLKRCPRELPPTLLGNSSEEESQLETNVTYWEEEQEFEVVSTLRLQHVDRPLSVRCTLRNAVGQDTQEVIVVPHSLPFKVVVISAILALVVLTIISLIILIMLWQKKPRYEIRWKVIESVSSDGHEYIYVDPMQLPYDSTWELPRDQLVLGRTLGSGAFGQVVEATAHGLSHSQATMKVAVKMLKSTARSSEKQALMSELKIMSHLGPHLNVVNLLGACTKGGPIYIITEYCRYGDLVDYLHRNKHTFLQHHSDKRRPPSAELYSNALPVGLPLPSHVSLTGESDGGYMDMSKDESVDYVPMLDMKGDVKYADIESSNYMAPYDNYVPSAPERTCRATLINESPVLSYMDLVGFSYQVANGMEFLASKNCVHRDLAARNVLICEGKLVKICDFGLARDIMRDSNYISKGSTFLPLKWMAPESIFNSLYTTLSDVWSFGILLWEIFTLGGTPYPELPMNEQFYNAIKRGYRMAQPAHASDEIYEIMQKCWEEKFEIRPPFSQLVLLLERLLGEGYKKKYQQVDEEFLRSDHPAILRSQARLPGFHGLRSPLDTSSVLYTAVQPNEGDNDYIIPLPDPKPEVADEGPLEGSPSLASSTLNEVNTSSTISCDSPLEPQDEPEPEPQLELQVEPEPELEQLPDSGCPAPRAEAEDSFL
# METHOD_NOTES: Inhibition of glutathione S-transferase fused PDGFbetaR (unknown origin) in 3T3 cells
# Format: cell-based
QUANTITY_MEASURED: IC50 (µM)
Field format: number, assumed µM, no unit text.

Exercise: Record COC(=O)c1ccc2c(c1)NC(=O)/C2=C(\Nc1ccc2c(c1)CCN2C(=O)CN1CCOCC1)c1ccccc1 : what is its IC50 with Platelet-derived growth factor receptor beta (Homo sapiens, UniProt P09619)?
Key: 0.1

---

# METHOD_NOTES: in vivo
# EXPERIMENTAL_SETUP: rat, po, 5 mg/kg
# Description: Half life in rat at 5 mg/kg, po
QUANTITY_MEASURED: half-life (h)
Number only, in h; omit the unit.

Exercise: Value lookup for half-life; key = O=c1nc(OC[C@@H]2COCCO2)cc2n1CCc1cc(C#CC3CC3)ccc1-2 [GLPG-1205]
Key: 1.9

---

# METHOD_NOTES: Metabolic stability in Sprague-Dawley rat assessed as half life
# Format: ADME
QUANTITY_MEASURED: half-life (h)
Reply numerically in h, unit not repeated.

Exercise: Any idea what half-life was measured for COC(=O)c1ccc2c(c1)NC(=O)/C2=C(\Nc1ccc2c(c1)CCN2C(=O)CN1CCOCC1)c1ccccc1 ?
Key: 4.8

---

# TEST_SYSTEM: Lysophosphatidic acid receptor 1 (Homo sapiens)
# Sequence (Q92633 whole entry): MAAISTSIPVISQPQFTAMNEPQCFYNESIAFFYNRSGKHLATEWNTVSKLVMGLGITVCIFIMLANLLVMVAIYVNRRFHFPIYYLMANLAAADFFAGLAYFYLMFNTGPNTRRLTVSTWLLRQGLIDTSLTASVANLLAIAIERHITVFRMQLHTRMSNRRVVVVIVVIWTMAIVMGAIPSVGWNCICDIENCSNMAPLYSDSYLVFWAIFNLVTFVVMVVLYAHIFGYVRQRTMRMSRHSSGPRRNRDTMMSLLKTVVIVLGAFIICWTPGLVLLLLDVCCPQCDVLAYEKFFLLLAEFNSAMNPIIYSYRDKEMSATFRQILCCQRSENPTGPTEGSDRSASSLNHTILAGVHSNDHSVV
# METHOD_NOTES: Antagonist activity at human LPA1 receptor expressed in CHO cells assessed as inhibition of LPA-induced calcium mobilization pretreated for 15 mins followed by LPA stimulation by FLIPR analysis
QUANTITY_MEASURED: pEC50
Hey, just a heads up that pEC50 is the negative log base 10 of the concentration in molar.

Exercise: Could you share what pEC50 was measured for Cc1noc(-c2ccc(-c3ccc(C4(C(=O)O)CC4)cc3)cc2)c1NC(=O)O[C@H](C)c1ccccc1 , tested on Lysophosphatidic acid receptor 1 (Homo sapiens)?
Key: 8.17

---

# METHOD_NOTES: Half life in rat
# Type: ADME
# EXPERIMENTAL_SETUP: in vivo
QUANTITY_MEASURED: half-life (h)
Please respond with the number in h and leave the unit unwritten.

Exercise: What value of measured half-life is listed for COC(=O)c1ccc2c(c1)NC(=O)/C2=C(\Nc1ccc2c(c1)CCN2C(=O)CN1CCOCC1)c1ccccc1 ?
Key: 4.8
